# testTarget: BRM (Homo sapiens, UniProt P51531)
# Construct: made in house; host or cells: High Five insect cells
# Sequence (P51531 whole entry): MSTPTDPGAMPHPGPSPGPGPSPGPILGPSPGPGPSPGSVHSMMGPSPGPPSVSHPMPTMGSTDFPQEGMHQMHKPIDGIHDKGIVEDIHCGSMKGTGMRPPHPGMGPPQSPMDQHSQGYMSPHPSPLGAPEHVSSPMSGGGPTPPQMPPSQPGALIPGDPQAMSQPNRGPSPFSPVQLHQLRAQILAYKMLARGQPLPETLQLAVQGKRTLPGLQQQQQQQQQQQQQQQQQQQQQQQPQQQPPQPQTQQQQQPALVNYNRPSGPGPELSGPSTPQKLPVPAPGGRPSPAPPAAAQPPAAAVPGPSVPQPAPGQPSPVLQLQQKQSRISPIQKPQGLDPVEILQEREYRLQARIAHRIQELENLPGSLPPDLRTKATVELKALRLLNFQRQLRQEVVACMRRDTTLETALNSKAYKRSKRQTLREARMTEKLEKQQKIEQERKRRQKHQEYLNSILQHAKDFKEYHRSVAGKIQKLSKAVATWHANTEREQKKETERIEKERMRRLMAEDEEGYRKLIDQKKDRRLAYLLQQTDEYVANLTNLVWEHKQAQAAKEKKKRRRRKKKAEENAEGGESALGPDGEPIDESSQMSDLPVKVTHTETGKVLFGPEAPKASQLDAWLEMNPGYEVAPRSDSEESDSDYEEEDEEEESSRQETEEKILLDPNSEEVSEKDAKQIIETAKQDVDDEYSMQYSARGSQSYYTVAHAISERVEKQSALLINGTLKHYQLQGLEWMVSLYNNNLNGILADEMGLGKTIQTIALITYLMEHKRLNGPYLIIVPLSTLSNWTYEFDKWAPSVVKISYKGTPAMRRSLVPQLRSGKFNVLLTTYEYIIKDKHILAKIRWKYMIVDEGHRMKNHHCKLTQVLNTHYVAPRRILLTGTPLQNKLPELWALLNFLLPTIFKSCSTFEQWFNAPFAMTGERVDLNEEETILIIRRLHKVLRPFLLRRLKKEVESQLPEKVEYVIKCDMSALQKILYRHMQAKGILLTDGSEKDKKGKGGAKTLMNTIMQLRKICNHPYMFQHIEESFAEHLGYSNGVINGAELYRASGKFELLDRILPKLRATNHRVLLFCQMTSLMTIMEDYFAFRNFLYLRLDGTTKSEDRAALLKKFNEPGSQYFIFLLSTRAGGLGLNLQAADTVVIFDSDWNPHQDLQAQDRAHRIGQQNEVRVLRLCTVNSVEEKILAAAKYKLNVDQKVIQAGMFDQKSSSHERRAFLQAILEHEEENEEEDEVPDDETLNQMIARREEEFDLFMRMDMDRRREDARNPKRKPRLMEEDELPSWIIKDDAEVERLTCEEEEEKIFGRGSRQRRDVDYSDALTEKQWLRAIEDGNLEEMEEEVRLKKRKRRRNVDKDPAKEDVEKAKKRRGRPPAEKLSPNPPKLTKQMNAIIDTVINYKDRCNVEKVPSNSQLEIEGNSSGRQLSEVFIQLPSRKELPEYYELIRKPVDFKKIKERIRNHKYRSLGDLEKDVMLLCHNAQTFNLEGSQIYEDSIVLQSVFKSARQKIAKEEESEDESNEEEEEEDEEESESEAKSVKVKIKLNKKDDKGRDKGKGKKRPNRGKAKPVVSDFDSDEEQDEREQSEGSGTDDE
# assayMethodText: ATPase catalytic activity of BRM, ADP-Glo in vitro biochemical assay
# conditionDescription: ATPase catalytic activity, ADP-Glo; 30 nM BRM, 400 μM ATP
pIC50: −log10 of the molar value.
measurementKind: pIC50

compound=O=C(NCc1cc2nc(N3CCCc4c(C(F)F)ccnc43)ccc2cn1)c1ccc2c(c1)S(=O)(=O)CCOC2 testresult=7.22
compound=CN1CCCc2ccc(-c3ccc4cnc(CNC(=O)c5ccc6c(c5)S(=O)(=O)CCOC6)cc4n3)nc21 testresult=7.90
compound=Cc1cc(C(=O)NCc2cc3nc(-c4cccc(N5C[C@@H](C)O[C@@H](C)C5)n4)ccc3cn2)cc2c1COC[C@H](C)S2(=O)=O testresult=8.23
compound=Cc1ccc2c(n1)N(c1ccc3cnc(CNC(=O)c4ccc5c(c4)S(=O)(=O)CCOC5)cc3c1)CCO2 testresult=7.72
compound=C[C@@H]1CN(c2nccc(-c3ccc4cnc(CNC(=O)c5ccc6c(c5)S(=O)(=O)[C@@H](C)COC6)cc4n3)c2F)C[C@H](C)O1 testresult=7.29
compound=C[C@@H]1CN(c2cccc(-c3ccc4cnc(CNC(=O)c5cnc6c(c5)S(=O)(=O)[C@H](C)CC6)cc4n3)n2)C[C@H](C)O1 testresult=6.17
compound="CC1Cc2cccnc2N(c2ccc3cnc(CNC(=O)c4ccc5c(c4)S(=O)(=O)CCOC5)cc3n2)C1 (stereo not drawn)" testresult=5.77
compound=O=C(NCc1cc2nc(N3CCOc4cc(C(F)F)ccc43)ccc2cn1)c1ccc2c(c1)S(=O)(=O)CCOC2 testresult=7.67
compound=C[C@H]1COCc2ccc(C(=O)NCc3cc4nc(-c5ccnc([C@H]6CC6(F)F)n5)ccc4cn3)cc2S1(=O)=O testresult=7.44
compound=CN(CC1(F)COC1)c1cccc(-c2ccc3cnc(CNC(=O)c4ccc5c(c4)S(=O)(=O)CCOC5)cc3n2)n1 testresult=7.34
compound=Cc1ccc2c(n1)N(c1ccc3cnc(CNC(=O)c4ccc5c(c4)S(=O)(=O)CCCO5)cc3n1)CCC2 testresult=6.94
compound=COc1ccc2c(c1)N(c1ccc3cnc(CNC(=O)c4ccc5c(c4)S(=O)(=O)CCOC5)cc3n1)CCC2 testresult=7.91
compound=O=C(NCc1cc2nc(N3CCCCc4cccnc43)ccc2cn1)c1ccc2c(c1)S(=O)(=O)CCOC2 testresult=5.63
compound=C[C@@H]1CN(c2cccc(-c3ccc4cnc(CNC(=O)c5cc(Cl)c6c(c5)S(=O)(=O)[C@@H](C)COC6)cc4n3)n2)C[C@H](C)O1 testresult=7.79
compound=CO[C@H](C)c1cnc2c(c1)CCCN2c1ccc2cnc(CNC(=O)c3ccc4c(c3)S(=O)(=O)CCOC4)cc2n1 testresult=7.35
compound=C[C@@]1(F)CCCN(c2cccc(-c3ccc4cnc(CNC(=O)c5ccc6c(c5)S(=O)(=O)CCOC6)cc4n3)n2)C1 testresult=8.03
compound=C[C@@H]1CN(c2cccc(-c3ccc4cnc(CNC(=O)c5cc(Cl)c6c(c5)S(=O)(=O)CCOC6)cc4n3)n2)C[C@H](C)O1 testresult=7.86
compound=COCCN1CCc2cccc(-c3ccc4cnc(CNC(=O)c5ccc6c(c5)S(=O)(=O)CCOC6)cc4n3)c2C1 testresult=5.42
compound=COC[C@H]1COc2c(-c3ccc4cnc(CNC(=O)c5ccc6c(c5)S(=O)(=O)CCOC6)cc4n3)cccc2N1C testresult=6.64
compound=C[C@@H]1CN(c2cccc(-c3ccc4cnc(CNC(=O)c5ccc6c(c5)S(=O)(=O)[C@@H](C)CN6C5CC5)cc4n3)n2)C[C@H](C)O1 testresult=7.41
compound=C[C@@H]1CN(c2cccc(-c3ccc4cnc(CNC(=O)c5cnc6c(c5)S(=O)(=O)[C@H](C)CCC6)cc4n3)n2)C[C@H](C)O1 testresult=6.64
compound=O=C(NCc1cc2nc(N3CCCc4c(Cl)ccnc43)ccc2cn1)c1ccc2c(c1)S(=O)(=O)CCOC2 testresult=7.59
compound=CCN(c1cccc(-c2ccc3cnc(CNC(=O)c4cc(F)c5c(c4)S(=O)(=O)CCOC5)cc3n2)n1)C1CC1 testresult=7.70
compound=O=C(NCc1cc2nc(N3CCCc4ccc(N5CCC5)nc43)ccc2cn1)c1ccc2c(c1)S(=O)(=O)CCOC2 testresult=7.49
compound=CN(C)c1cnc2c(c1)CCCN2c1ccc2cnc(CNC(=O)c3ccc4c(c3)S(=O)(=O)CCOC4)cc2n1 testresult=7.93
compound=COc1nc(C(F)F)ccc1-c1ccc2cnc(CNC(=O)c3cc(F)c4c(c3)S(=O)(=O)CCOC4)cc2n1 testresult=8.08
compound=COCCc1ccc2c(n1)N(c1ccc3cnc(CNC(=O)c4ccc5c(c4)S(=O)(=O)CCOC5)cc3n1)CCC2 testresult=7.26

====

IC50 listing for selected compounds.
# testTarget: BRG-1 (Homo sapiens)
# Construct: made in house; host or cells: High Five insect cells
# assayMethodText: ATPase catalytic activity of BRG-1, ADP-Glo in vitro biochemical assay
# conditionDescription: ATPase catalytic activity, ADP-Glo; 30 nM BRG-1, 400 μM ATP; read-out: BRG1 IC50
measurementKind: IC50 (nM)

compound="O=C(NCc1cc2nc(-c3ccc4c(n3)OCCC4)ccc2cn1)c1ccc2c(c1)S(=O)(=O)CCOC2 [Compound 499]" measurementkind=IC50 readoutunit=nM testresult=1190
compound="COc1c(C)cnc2c1CCCN2c1ccc2cnc(CNC(=O)c3ccc4c(c3)S(=O)(=O)CCOC4)cc2n1 [Compound 629]" measurementkind=IC50 readoutunit=nM testresult=85
compound="C[C@H]1CCOc2c(F)cc(C(=O)NCc3cc4nc(N5CCOc6cccnc65)ccc4cn3)cc2S1(=O)=O [Compound 524]" measurementkind=IC50 readoutunit=nM testresult=171
compound="COc1nc(C(C)(F)F)ccc1-c1ccc2cnc(CNC(=O)c3cc(F)c4c(c3)S(=O)(=O)[C@@H](C)COC4)cc2n1 [Compound 543]" measurementkind=IC50 readoutunit=nM testresult=383

====

# testTarget: BRM (Homo sapiens, UniProt P51531)
# Construct: made in house; host or cells: High Five insect cells
# assayMethodText: ATPase catalytic activity of BRM, ADP-Glo in vitro biochemical assay
# conditionDescription: ATPase catalytic activity, ADP-Glo; 30 nM BRM, 400 μM ATP
measurementKind: IC50

givensmiles=C[C@@H]1CN(c2cccc(-c3ccc4cnc(CNC(=O)c5cnc6c(c5)S(=O)(=O)[C@@H](C)CCC6)cc4n3)n2)C[C@H](C)O1 testresult="6.4 nM"
givensmiles=COc1nc(-c2ccc3cnc(CNC(=O)c4cc(F)c5c(c4)S(=O)(=O)[C@@H](C)COC5)cc3n2)ccc1C(F)F testresult="19.5 nM"
givensmiles=COCc1ccc2c(c1)N(c1ccc3cnc(CNC(=O)c4ccc5c(c4)S(=O)(=O)CCOC5)cc3n1)CCC2 testresult="11.7 nM"
givensmiles=Cc1ccc2c(n1)CN(c1ccc3cnc(CNC(=O)c4ccc5c(c4)S(=O)(=O)CCOC5)cc3n1)CC2 testresult="476 nM"

====

# testTarget: BRG-1 (Homo sapiens, UniProt P51532)
# Construct: made in house; host or cells: High Five insect cells
# Sequence (P51532 whole entry): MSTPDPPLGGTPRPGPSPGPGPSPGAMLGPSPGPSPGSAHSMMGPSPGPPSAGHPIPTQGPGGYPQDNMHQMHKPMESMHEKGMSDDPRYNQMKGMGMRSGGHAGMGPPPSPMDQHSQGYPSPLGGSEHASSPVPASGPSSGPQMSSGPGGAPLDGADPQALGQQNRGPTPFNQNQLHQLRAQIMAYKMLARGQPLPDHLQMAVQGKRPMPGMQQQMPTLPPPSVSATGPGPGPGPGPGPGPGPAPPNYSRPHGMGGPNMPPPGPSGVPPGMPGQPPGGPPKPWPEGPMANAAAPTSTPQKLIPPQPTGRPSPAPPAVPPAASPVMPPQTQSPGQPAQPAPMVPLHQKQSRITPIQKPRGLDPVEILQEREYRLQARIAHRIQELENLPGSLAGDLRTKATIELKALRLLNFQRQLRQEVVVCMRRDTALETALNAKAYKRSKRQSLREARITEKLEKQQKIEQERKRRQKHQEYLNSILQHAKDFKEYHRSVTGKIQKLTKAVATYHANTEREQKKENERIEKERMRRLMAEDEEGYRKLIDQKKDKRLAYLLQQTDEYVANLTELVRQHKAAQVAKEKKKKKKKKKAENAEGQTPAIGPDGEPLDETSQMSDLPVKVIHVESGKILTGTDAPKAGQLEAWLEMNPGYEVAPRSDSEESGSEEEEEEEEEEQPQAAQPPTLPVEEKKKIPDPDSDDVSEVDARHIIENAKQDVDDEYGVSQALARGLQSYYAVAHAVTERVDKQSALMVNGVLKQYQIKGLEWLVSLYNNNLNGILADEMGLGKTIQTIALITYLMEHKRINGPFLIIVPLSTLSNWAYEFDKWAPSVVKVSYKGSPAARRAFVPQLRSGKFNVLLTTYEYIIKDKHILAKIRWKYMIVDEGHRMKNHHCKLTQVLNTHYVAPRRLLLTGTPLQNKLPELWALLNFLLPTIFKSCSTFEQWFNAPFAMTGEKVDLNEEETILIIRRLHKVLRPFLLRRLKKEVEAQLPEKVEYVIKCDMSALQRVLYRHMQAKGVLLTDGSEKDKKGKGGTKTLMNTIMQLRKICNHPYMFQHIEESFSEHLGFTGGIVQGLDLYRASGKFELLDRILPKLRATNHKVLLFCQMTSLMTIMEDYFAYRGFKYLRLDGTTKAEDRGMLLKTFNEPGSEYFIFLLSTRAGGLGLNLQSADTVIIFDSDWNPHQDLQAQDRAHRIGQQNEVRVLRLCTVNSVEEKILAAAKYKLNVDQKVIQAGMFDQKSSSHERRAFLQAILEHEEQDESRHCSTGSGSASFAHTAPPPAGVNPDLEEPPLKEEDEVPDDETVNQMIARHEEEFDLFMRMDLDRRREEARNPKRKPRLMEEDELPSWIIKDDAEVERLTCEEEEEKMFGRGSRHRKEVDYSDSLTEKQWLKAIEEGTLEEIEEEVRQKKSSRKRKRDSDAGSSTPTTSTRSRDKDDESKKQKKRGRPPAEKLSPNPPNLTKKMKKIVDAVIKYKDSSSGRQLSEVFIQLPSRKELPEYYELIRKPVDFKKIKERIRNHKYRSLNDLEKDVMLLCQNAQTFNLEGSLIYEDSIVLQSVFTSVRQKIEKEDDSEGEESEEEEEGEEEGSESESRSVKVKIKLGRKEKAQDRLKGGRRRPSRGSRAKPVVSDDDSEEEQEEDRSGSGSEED
# assayMethodText: ATPase catalytic activity of BRG-1, ADP-Glo in vitro biochemical assay
# conditionDescription: ATPase catalytic activity, ADP-Glo; 30 nM BRG-1, 400 μM ATP; read-out: BRG1 IC50
pIC50: −log10 of the molar value.
measurementKind: pIC50

compound="COc1ccnc2c1CCCN2c1ccc2cnc(CNC(=O)c3ccc4c(c3)S(=O)(=O)CCOC4)cc2n1 [Compound 439]" testtarget="BRG-1 (Homo sapiens, UniProt P51532)" testresult=7.36
compound="O=C(NCc1cc2nc(N3CCCc4ccc(COC5CC5)nc43)ccc2cn1)c1ccc2c(c1)S(=O)(=O)CCOC2 [Compound 598]" testtarget="BRG-1 (Homo sapiens, UniProt P51532)" testresult=6.00
compound="CCc1ccc2c(n1)N(c1ccc3cnc(CNC(=O)c4ccc5c(c4)S(=O)(=O)CCOC5)cc3n1)CCO2 [Compound 658]" testtarget="BRG-1 (Homo sapiens, UniProt P51532)" testresult=6.47
compound="CO[C@@H]1CN(c2cccc(-c3ccc4cnc(CNC(=O)c5ccc6c(c5)S(=O)(=O)CCOC6)cc4n3)n2)C[C@H]1F [Compound 340]" testtarget="BRG-1 (Homo sapiens, UniProt P51532)" testresult=6.51

====

# testTarget: BRM (Homo sapiens, UniProt P51531)
# Construct: made in house; host or cells: High Five insect cells
# assayMethodText: ATPase catalytic activity of BRM, ADP-Glo in vitro biochemical assay
# conditionDescription: ADP-Glo ATPase assay, 30 nM BRM, 400 μM ATP
measurementKind: IC50 (µM)

compound="C[C@@H]1COC[C@H](C)N1c1cccc(-c2ccc3cnc(CNC(=O)c4ccc5c(c4)S(=O)(=O)CCOC5)cc3n2)n1 [Compound 104]" testresult=0.203
compound="O=C(NCc1cc2nc(-c3cncc(C4CC4)n3)ccc2cn1)c1ccc2c(c1)S(=O)(=O)CCOC2 [Compound 305]" testresult=0.03
compound="CO[C@H]1C[C@@H](c2cccc(-c3ccc4cnc(CNC(=O)c5ccc6c(c5)S(=O)(=O)CCOC6)cc4n3)n2)C1 [Compound 113]" testresult=0.0595
compound="O=C(NCc1cc2nc(-c3cncc(C4CC4)n3)ccc2cn1)c1ccc2c(c1)[S+]([O-])CCOC2 (stereo not shown) [Compound 299]" testresult=0.869
compound="CS(=O)(=O)c1cc(C(=O)NCc2cc3nc(-c4cncc(C5CC5)n4)ccc3cn2)cnc1C(F)F [Compound 277]" testresult=0.615
compound="COCCN(c1cccc(C2CC2)n1)c1ccc2cnc(CNC(=O)c3ccc4c(c3)S(=O)(=O)CCOC4)cc2n1 [Compound 840]" testresult=4
compound="O=C(NCc1cc2cc(-c3cncc(N4CCC4)n3)ccc2cn1)c1ccc2c(c1)S(=O)(=O)CCOC2 [Compound 257]" testresult=0.0154
